# TARGET OR SYSTEM: IDH2 C308 (P48735) (Homo sapiens)
# Sequence (P48735 40-452): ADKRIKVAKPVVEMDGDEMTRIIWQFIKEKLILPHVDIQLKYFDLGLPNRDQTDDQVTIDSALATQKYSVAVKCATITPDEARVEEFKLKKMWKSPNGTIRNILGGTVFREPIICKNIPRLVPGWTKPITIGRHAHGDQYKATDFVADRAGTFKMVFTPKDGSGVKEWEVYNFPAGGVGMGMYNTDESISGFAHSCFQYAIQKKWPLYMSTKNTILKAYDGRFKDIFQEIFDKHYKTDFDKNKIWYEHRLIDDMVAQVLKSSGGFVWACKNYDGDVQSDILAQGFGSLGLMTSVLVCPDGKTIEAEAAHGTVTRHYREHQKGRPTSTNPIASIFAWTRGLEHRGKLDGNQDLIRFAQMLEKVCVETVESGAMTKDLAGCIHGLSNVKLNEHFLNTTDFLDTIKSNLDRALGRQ
# PROTOCOL: Competitive isoTOP-ABPP, cell lysates
# Format: binding
# TEST CONTEXT: 500 μM, invitro, 231
OBSERVED PROPERTY: isoTOP-ABPP ratio, P48735_C308
The answer should be a number; do not append a unit.

stdin: // Input: Cn1cc(S(=O)(=O)N2CCOCC2)cc1C(=O)NC(=O)CCl [compound 11] . Output its isoTOP-ABPP ratio, P48735_C308 only.
stdout: 1.1

stdin: Report measured isoTOP-ABPP ratio, P48735_C308; entry is O=C(CCl)NCCc1c[nH]c2ccccc12 [compound 13]
stdout: 1.1

stdin: Answer with reported isoTOP-ABPP ratio, P48735_C308 of O=C(CCl)N1CCN(S(=O)(=O)c2ccccc2F)CC1 [compound 10]
stdout: 1.1

stdin: Please supply the value of reported isoTOP-ABPP ratio, P48735_C308 for the item O=C(CCl)NC(=O)NC12CC3CC(CC(C3)C1)C2 [compound 12]
stdout: 1.7

stdin: Assign isoTOP-ABPP ratio, P48735_C308 to the following record: C=CC(=O)N(c1ccccc1)c1ccc(Br)cc1 [compound 5]
stdout: 0.8
